assay: Ocular PK study of PS nanoparticles (mPEG-PLA), topical eye drops; type: in vivo, New Zealand white rabbits; settings: New Zealand white, rabbit, iris, topical or ocular, read-out: Cmax, Iris
assay.endpoint: Cmax (µM)

{"compound": "CCOP(=O)(OCC)OCCCCOC(=O)CC1=C(C)/C(=C/c2ccc([S+](C)[O-])cc2)c2ccc(F)cc21 (stereo not shown)", "assay.endpoint": "Cmax", "numeric.value": 5.2}

----------
test: PS biodistribution after topical alternative gellan gum-based in-situ gel; format: in vivo, New Zealand white rabbits; conditions: New Zealand white, rabbit, conjunctiva, 5 h, alternative gellan gum 0.4% gel, read-out: PS in Conjunctiva
assay.endpoint: concentration at 5 h (nM)

{"compound": "CCOP(=O)(OCC)OCCCCOC(=O)CC1=C(C)/C(=C/c2ccc([S+](C)[O-])cc2)c2ccc(F)cc21 (stereo not shown)", "assay.endpoint": "concentration at 5 h", "numeric.value": 1100}

----------
test: PS levels in ocular tissues after topical gellan gum-based in-situ gel; assay type: in vivo, New Zealand white rabbits; details: New Zealand white, rabbit, aqueous humor, gellan gum 0.5% in-situ gel, 2.4~3% PS, eye drops, read-out: PS in Aqueous humor
assay.endpoint: concentration at 2 h (nM)

{"compound": "CCOP(=O)(OCC)OCCCCOC(=O)CC1=C(C)/C(=C/c2ccc([S+](C)[O-])cc2)c2ccc(F)cc21 (stereo not shown)", "assay.endpoint": "concentration at 2 h", "numeric.value": 1200}

----------
assay: PS levels in ocular tissues (HPLC) after topical 3.5% PS Vitamin E TPGS solution; type: in vivo, New Zealand white rabbits; details: New Zealand white, rabbit, retina, 3.5 % PS solution (eye drops), 3 h, read-out: PS in Retina
assay.endpoint: concentration at 3 h

{"molecule": "CCOP(=O)(OCC)OCCCCOC(=O)CC1=C(C)/C(=C/c2ccc([S+](C)[O-])cc2)c2ccc(F)cc21 (stereo not shown) [PS, phosphosulindac]", "assay.endpoint": "concentration at 3 h", "result": "200 nM"}

----------
test: Rabbit ocular PK study of PS emulsion (2% PS); assay type: in vivo, New Zealand rabbits; settings: New Zealand, rabbit, iris and ciliary body, topical or ocular; 2% PS emulsion, eye drops; read-out: AUC0-16 h in the iris and ciliary body

{"compound": "CCOP(=O)(OCC)OCCCCOC(=O)CC1=C(C)/C(=C/c2ccc([S+](C)[O-])cc2)c2ccc(F)cc21 (stereo not shown)", "AUC(0-t)": "< 4 µM·h"}

----------
assay: Biodistribution of PS nanoparticles after intravitreal injection; type: in vivo, New Zealand white rabbits; details: New Zealand white, rabbit, retina, other: intravitreal, 0.2% PS Nanoparticle Soln., 0.5 h, read-out: PS in Retina

{"compound": "CCOP(=O)(OCC)OCCCCOC(=O)CC1=C(C)/C(=C/c2ccc([S+](C)[O-])cc2)c2ccc(F)cc21 (stereo not shown)", "u": "µM", "concentration at 0.5 h": 187}

----------
assay: PS levels in ocular tissues (HPLC) after topical 3.5% PS Vitamin E TPGS solution; format: in vivo, New Zealand white rabbits; settings: New Zealand white, rabbit, cornea, 3.5 % PS solution (eye drops), 1 h, read-out: PS in Cornea

{"molecule": "CCOP(=O)(OCC)OCCCCOC(=O)CC1=C(C)/C(=C/c2ccc([S+](C)[O-])cc2)c2ccc(F)cc21 (stereo not shown) [PS, phosphosulindac]", "concentration at 1 h, µM": 6.9}

----------
assay: PS biodistribution after topical alternative gellan gum-based in-situ gel; format: in vivo, New Zealand white rabbits; conditions: New Zealand white, rabbit, conjunctiva, 3 h, alternative gellan gum 0.4% gel, read-out: PS in Conjunctiva

{"compound": "CCOP(=O)(OCC)OCCCCOC(=O)CC1=C(C)/C(=C/c2ccc([S+](C)[O-])cc2)c2ccc(F)cc21 (stereo not shown) [PS, phosphosulindac]", "u": "nM", "concentration at 3 h": 700}

----------
experiment: Rabbit ocular PK study of PS emulsion (2% PS); type: in vivo, New Zealand rabbits; conditions: 2% PS emulsion, three 25 μL eye drops; PS and its metabolites
assay.endpoint: Cmax, aqueous humor (μm)

{"molecule": "CC1=C(CC(=O)O)c2cc(F)ccc2/C1=C\\c1ccc(S(C)(=O)=O)cc1 [sulindac sulfone]", "assay.endpoint": "Cmax, aqueous humor", "u": "μm", "numeric.value": 0.0}
{"molecule": "CSc1ccc(/C=C2/C(C)=C(CC(=O)O)c3cc(F)ccc32)cc1 [sulindac sulfide]", "assay.endpoint": "Cmax, aqueous humor", "u": "μm", "numeric.value": 2.0}
{"molecule": "CCOP(=O)(OCC)OCCCCOC(=O)CC1=C(C)/C(=C/c2ccc([S+](C)[O-])cc2)c2ccc(F)cc21 (stereo not shown) [PS, phosphosulindac]", "assay.endpoint": "Cmax, aqueous humor", "u": "μm", "numeric.value": 0.9}
{"molecule": "CC1=C(CC(=O)O)c2cc(F)ccc2/C1=C\\c1ccc([S+](C)[O-])cc1 (stereo not shown) [sulindac, reference compound]", "assay.endpoint": "Cmax, aqueous humor", "u": "μm", "numeric.value": 1.0}

----------
test: Ocular PK study of PS nanoparticles (mPEG-PLA), topical eye drops; assay type: in vivo, New Zealand white rabbits; parameters: concentration or dose not given beside the values; conditions: New Zealand white, rabbit, iris, topical or ocular, read-out: AUC0-16 h, Iris
assay.endpoint: AUC(0-t) (µM·h)

{"compound": "CCOP(=O)(OCC)OCCCCOC(=O)CC1=C(C)/C(=C/c2ccc([S+](C)[O-])cc2)c2ccc(F)cc21 (stereo not shown)", "assay.endpoint": "AUC(0-t)", "u": "µM·h", "numeric.value": 13.6}

----------
assay: PS biodistribution after topical alternative sodium alginate-based in-situ gel; type: in vivo, New Zealand white rabbits; conditions: New Zealand white, rabbit, cornea, 3 % PS in formulation, 5 h, read-out: PS in Cornea
assay.endpoint: concentration at 5 h (nM)

{"molecule": "CCOP(=O)(OCC)OCCCCOC(=O)CC1=C(C)/C(=C/c2ccc([S+](C)[O-])cc2)c2ccc(F)cc21 (stereo not shown)", "numeric.value": 1000}

----------
test: PS levels in ocular tissues (HPLC) after topical 3.5% PS Vitamin E TPGS solution; format: in vivo, New Zealand white rabbits; details: New Zealand white, rabbit, cornea, 3.5 % PS solution (eye drops), 3 h, read-out: PS in Cornea

{"molecule": "CCOP(=O)(OCC)OCCCCOC(=O)CC1=C(C)/C(=C/c2ccc([S+](C)[O-])cc2)c2ccc(F)cc21 (stereo not shown)", "concentration at 3 h": "800 nM"}

----------
Test: Ocular PK study of PS nanoparticles (mPEG-PLA), topical eye drops
Format: in vivo, New Zealand white rabbits
Parameters: concentration or dose not given beside the values
Settings: New Zealand white, rabbit, aqueous humor, topical or ocular, read-out: AUC0-16 h, Aqueous humor
Description: Composition: ˜3.0-3.5% PS, 96.5˜97% methoxy poly(ethylene glycol)-poly(lactide) (mPEG-PLA). Preparation Method: Oil phase: 150 mg of PS and 1 g of PEG-PLA (Akina, Inc) were dissolved in 20 mL dichloromethane (DCM). […] Ocular PK study: PS formulated in nanoparticles as above was administered topically as eye drops to New Zealand white rabbits. The biodistribution of PS in ocular tissues at the indicated time points post administration was determined by HPLC.
assay.endpoint: AUC(0-t) (µM·h)

{"compound": "CCOP(=O)(OCC)OCCCCOC(=O)CC1=C(C)/C(=C/c2ccc([S+](C)[O-])cc2)c2ccc(F)cc21 (stereo not shown) [PS, phosphosulindac]", "numeric.value": 3.4}

----------
test: PS biodistribution after topical alternative sodium alginate-based in-situ gel; type: in vivo, New Zealand white rabbits; details: New Zealand white, rabbit, aqueous humor, 3 % PS in formulation, 1 h, read-out: PS in Aqueous humor

{"compound": "CCOP(=O)(OCC)OCCCCOC(=O)CC1=C(C)/C(=C/c2ccc([S+](C)[O-])cc2)c2ccc(F)cc21 (stereo not shown)", "concentration at 1 h / nM": 400}

----------
Assay: Ocular PK study of PS nanoparticles (mPEG-PLA), topical eye drops
Type: in vivo, New Zealand white rabbits
Conditions: New Zealand white, rabbit, ciliary body, topical or ocular, read-out: Cmax, Ciliary body
Description: Composition: ˜3.0-3.5% PS, 96.5˜97% methoxy poly(ethylene glycol)-poly(lactide) (mPEG-PLA). Preparation Method: Oil phase: 150 mg of PS and 1 g of PEG-PLA (Akina, Inc) were dissolved in 20 mL dichloromethane (DCM). […] Ocular PK study: PS formulated in nanoparticles as above was administered topically as eye drops to New Zealand white rabbits. The biodistribution of PS in ocular tissues at the indicated time points post administration was determined by HPLC.

{"compound": "CCOP(=O)(OCC)OCCCCOC(=O)CC1=C(C)/C(=C/c2ccc([S+](C)[O-])cc2)c2ccc(F)cc21 (stereo not shown)", "Cmax": "2600 nM"}
